test system: HepG2; experiment: GSK_TCMDC: Percent inhibition of human HepG2 cell line. Test compounds present at 10uM.; format: functional
recorded endpoint: Inhibition (%)
The response must be a number in % with no trailing unit.

Check out these entries, answers already filled in.
N#Cc1ccc(N(CCNS(=O)(=O)c2cc(Br)c(Cl)s2)Cc2ccccc2C(F)(F)F)cc1C(F)(F)F: 3
CON=Cc1ccn(-c2ccc(O)c3c2C[C@H]2C[C@H]4[C@H](N(C)C)C(O)=C(C(N)=O)C(=O)[C@@]4(O)C(O)=C2C3=O)c1.O=S(=O)(O)O: 3

Consider now this further molecule.
Query: # query: Inhibition of entry Cc1ccc(CNC(=O)[C@H](CC(C)C)Nc2cc(C)nc(NCc3ccccc3C)n2)cc1.O=C(O)C(F)(F)F
Result: 3

----------
test system: Plasmodium falciparum; test: GSK_TCMDC: Inhibition of Plasmodium falciparum 3D7 in whole red blood cells, using parasite LDH activity as an index of growth. Test compounds present at 2uM; type: functional
Each entry below carries its recorded Inhibition.
The response must be a number in % with no trailing unit.

Check out these entries, answers already filled in.
CC(C)(C)c1cc([N+](=O)[O-])cc(C(=O)Nc2ccccc2C(F)(F)F)c1O: 96
CN1CCN(S(=O)(=O)c2ccc3nccc(Nc4ccc(Oc5ccccc5)cc4)c3c2)CC1.Cl: 98
CCOc1ccc(-c2nc(NC(=O)Cc3cccc(OC)c3)sc2C)cc1: 97
CS(=O)(=O)CCNCc1nc(-c2ccc3c(Nc4ccc(Cl)cc4F)ccnc3c2)cs1: 88

Query: # query: Inhibition of entry CCCC(C)n1ccc2c3c(N)nc(N)nc3ccc21 (configuration not stated)
Result: 94

Query: Further, for CC(C)(C)c1ccc(/C=C/C(=O)NCCCCCN2CCC(c3c[nH]c4ccccc34)CC2)cc1 ?
Result: 91

Query: Further, for CCCNCc1ccc(-c2ccc(CN(Cc3cnc(C)cn3)C(=O)/C=C/c3ccccc3C)cc2)nc1.O=C(O)C(F)(F)F ?
Result: 95

----------
Each entry below carries its recorded Inhibition.
system: Plasmodium falciparum; assay: GSK_TCMDC: Inhibition of Plasmodium falciparum 3D7 in whole red blood cells, using parasite LDH activity as an index of growth. Test compounds present at 2uM; format: functional
Numeric answer plus unit only.

Check out these entries, answers already filled in.
CC(C(=O)N1CCCC1)N1CCN(S(=O)(=O)c2ccc(C(C)(C)C)cc2)CC1 (configuration not stated): 98%
CCOC(=O)c1nc(-c2ccc(Cl)cc2)[nH]c1NC(=S)NCCCN1CCOCC1: 92%
O=C(NC1CCCCC1)N(Cc1cccc(-c2ccc(CNCCc3ccccc3)cc2)c1)C1CCN(Cc2ccccc2)CC1.O=C(O)C(F)(F)F: 93%
COc1ccc(CCn2c(=N)c(C(=O)NCc3ccccc3)cc3c(=O)n4cccc(C)c4nc32)cc1: 100%

Query: # query: Inhibition of entry CS(=O)(=O)CCNCc1cccc(-c2cc3nccc(Nc4ccc(Oc5ccccc5)cc4)c3cc2Cl)c1
Result: 100%

Query: Further, for O=C(NC1CC1)c1ccc(N2CCCC(COc3ccc4c(c3)CCCC4)C2)nc1 (configuration not stated) ?
Result: 85%

Query: Further, for CC(=O)Nc1nc(C(=O)Nc2cccc(-c3ccc4c(cnn4CC4CC4)c3)c2)cs1 ?
Result: 95%

Query: Further, for C=C(NC(=O)C1CCCCC1)C(=O)OC ?
Result: 93%

Query: Further, for Fc1ccc2[nH]c(-c3cccc(-c4ccc(CNCCN5CCNCC5)cc4)c3)nc2c1.O=C(O)C(F)(F)F ?
Result: 90%
